Origin of the recorded values: patent US20230212144A1

# ASSAYED_TARGET: UniProt Q01959
# PROTOCOL_TEXT: Dopamine reuptake inhibition, [3H]-DA, HEK-293 cells transfected with dopamine transporter cDNA
# MEASUREMENT_CONTEXT: compound 1 μM; relative to control without compound (100%); lower value = stronger inhibition
RECORDED_METRIC: Triple reuptake inhibition (Ratio %) DAT

// worked examples, Triple reuptake inhibition (Ratio %) DAT included
| MOLECULE | UNIT_STRING | Triple reuptake inhibition (Ratio %) DAT |
| --- | --- | --- |
| FC(F)(F)c1cccc(-c2nnc(CN3CCC(Cc4ccccc4)CC3)[nH]2)c1 [Example 55] | % | 40.14 |
| FC(F)(F)c1ccc(-c2nnc(CN3CCC(Cc4ccc(Cl)c(Cl)c4)CC3)[nH]2)cc1 [Example 62] | % | 52.96 |
| Fc1ccc2[nH]c(-c3nnc(CN4CCN(Cc5ccccc5)CC4)[nH]3)cc2c1 [Example 64] | % | 32.65 |
| Clc1cccc2c(-c3nnc(CN4CCC(Cc5ccccc5)CC4)[nH]3)c[nH]c12 [Example 40] | % | 50.15 |
| Clc1ccc(CC2CCN(Cc3nnc(-c4cc5ccccc5[nH]4)o3)CC2)cc1Cl [Example 34] | % | 90.85 |

[I] COC(=O)c1cccc2c(-c3nnc(CN4CCC(Cc5ccccc5)CC4)[nH]3)c[nH]c12 [Example 42]
[II] COc1cccc2cc(-c3nnc(CN4CCC(Cc5ccccc5)CC4)[nH]3)[nH]c12 [Example 19]
[III] O=C(O)c1ccc2[nH]c(-c3nnc(CN4CCC(Cc5ccccc5)CC4)[nH]3)cc2c1 [Example 28]
**Q:** Arrange the 3 molecules by rising Triple reuptake inhibition (Ratio %) DAT, starting with the smallest. List labels; respect the requested ordering.
**A:** II, I, III
(II: 21.23%, I: 42.13%, III: 65.47%)

====

# ASSAYED_TARGET: dopamine transporter (DAT) (Homo sapiens)
# Sequence (Q01959 whole entry, species assumed): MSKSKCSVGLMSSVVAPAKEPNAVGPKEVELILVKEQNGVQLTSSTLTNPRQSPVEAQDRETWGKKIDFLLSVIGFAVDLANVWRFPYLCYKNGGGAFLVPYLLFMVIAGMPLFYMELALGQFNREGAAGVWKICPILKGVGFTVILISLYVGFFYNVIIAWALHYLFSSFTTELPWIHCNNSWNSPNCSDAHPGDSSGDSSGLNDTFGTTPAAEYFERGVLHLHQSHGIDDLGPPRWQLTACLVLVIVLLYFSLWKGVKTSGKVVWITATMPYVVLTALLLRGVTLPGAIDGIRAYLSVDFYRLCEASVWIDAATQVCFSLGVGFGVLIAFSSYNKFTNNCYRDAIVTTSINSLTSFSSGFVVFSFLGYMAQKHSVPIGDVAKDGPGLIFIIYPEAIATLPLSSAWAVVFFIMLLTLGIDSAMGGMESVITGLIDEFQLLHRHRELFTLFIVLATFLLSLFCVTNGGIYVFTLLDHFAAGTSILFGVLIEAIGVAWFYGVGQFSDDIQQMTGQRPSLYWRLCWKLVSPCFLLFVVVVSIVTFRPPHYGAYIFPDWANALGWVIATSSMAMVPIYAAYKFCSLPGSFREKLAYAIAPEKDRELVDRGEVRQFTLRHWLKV
# PROTOCOL_TEXT: Dopamine reuptake inhibition, [3H]-DA, HEK-293 cells transfected with dopamine transporter cDNA
# MEASUREMENT_CONTEXT: compound 1 μM; relative to control without compound (100%); lower value = stronger inhibition
RECORDED_METRIC: Triple reuptake inhibition (Ratio %) DAT

# annotated cases, reported Triple reuptake inhibition (Ratio %) DAT shown
| MOL | UNIT_STRING | Triple reuptake inhibition (Ratio %) DAT |
| --- | --- | --- |
| CCCCOc1ccc2cc(-c3nnc(CN4CCC(Cc5ccccc5)CC4)[nH]3)[nH]c2c1 | % | 50.33 |
| c1ccc(CC2CCN(Cc3nnc(-c4cc5ccccc5[nH]4)o3)CC2)cc1 | % | 97.72 |
| Nc1ccc2[nH]cc(-c3nnc(CN4CCC(Cc5ccccc5)CC4)[nH]3)c2c1 | % | 54.93 |
| Fc1ccc(-c2nnc(CN3CCC(Cc4ccccc4)CC3)[nH]2)cc1 | % | 20.47 |

[P] c1ccc(CC2CCN(Cc3nnc(-c4cc5ccccc5s4)[nH]3)CC2)cc1
[Q] COc1cc2cc(-c3nnc(CN4CCC(Cc5ccccc5)CC4)[nH]3)[nH]c2cc1OC
[R] CC(=O)Nc1ccc(-c2nnc(CN3CCC(Cc4ccccc4)CC3)[nH]2)cc1
[S] c1ccc(CC2CCN(Cc3nnc(-c4ccc(Oc5ccccc5)cc4)[nH]3)CC2)cc1
**Q:** rank_up(items): orders items by reported Triple reuptake inhibition (Ratio %) DAT in ascending numerical order. Respond with the label ranking, as requested.
**A:** Q, P, S, R
(Q: 5.96%, P: 26.92%, S: 52.90%, R: 75.88%)
